# Experimental system: GlcNAc(b1-2)Man(a1-3)[GlcNAc(b1-2)Man(a1-6)]Man(b1-4)GlcNAc(b1-4)GlcNAc
# Method notes: glycan array binding signal (z-score within array); higher = stronger binding
# Conditions: glycan notation: IUPAC condensed, linker removed
About 410 targets per protein were measured; listed, in parts, are those with the strongest signals and a random draw of the rest.
Provide the reported glycan array binding signal (z-score) of each item.
Answers are plain numbers.

Some solved cases for reference:
RVL (Remusatia vivipara), B5LYJ9 (protein) MAKLLLFLLPAILGLLVPRSAVALGTNYLLSGQTLDTEGHLKNGDFDLVMQDDCNLVLYNGNWQSNTANNGRDCKLTLTDYGELVIKNGDGSTVWKSGAQSVKGNYAAVVHPDGRLVVLGPSVFKIDPWVRGLNSLRFRNIPFTNNLLFSGQVLYGDGRLTAKNHQLVMQGDCNLVLYGGKYGWQSNTHGNGEHCFLRLNHKGELIIKDDDFKTIWSSRSSSKQGEYVLILQDDGFGVIYGPAIFETSSKRSIAAS: 0.913
HHL-2 (Homo sapiens), P07307 (protein) MAKDFQDIQQLSSEENDHPFHQGEGPGTRRLNPRRGNPFLKGPPPAQPLAQRLCSMVCFSLLALSFNILLLVVICVTGSQSEGHRGAQLQAELRSLKEAFSNFSSSTLTEVQAISTHGGSVGDKITSLGAKLEKQQQDLKADHDALLFHLKHFPVDLRFVACQMELLHSNGSQRTCCPVNWVEHQGSCYWFSHSGKAWAEAEKYCQLENAHLVVINSWEEQKFIVQHTNPFNTWIGLTDSDGSWKWVDGTDYRHNYKNWAVTQPDNWHGHELGGSEDCVEVQPDGRWNDDFCLQVYRWVCEKRRNATGEVA: -0.677
Gal 9 (Canis lupus) (protein) MAFSSSQPPYLSPGVPFSGKIQGGLQDGLKITINGTILYCNGTRFAVNFHSGHSDSDIAFHFNPRFEEGGYVVCNTKQKGSWGSEERKMQMPFQMGNPFELCFMVNSCDFKVTVNGSHFTQYSHRVPFHYVDTLSITGAVQLSYISFQSPGVWQSSSAPITQTVIHTVQTTPGQPFPNPIIPPTAYPTPTYPMPFFTSIPGGLYPSKSIIVSGTVLPGAKRFHINLRSGNDIAFHLNPRFNENTVVRNMQINNSWGSEERSLPRKMPFVQGQSFSVWIMCEGHCFKVAVDGEHLFEYYHRLKNLLAINNMEVAGDVQLTHVQT: -0.332

Each binder below has a reported value. Please supply its glycan array binding signal (z-score).
1. LSectin (Mus musculus), Q8BNX1 (protein) MNTGEYNKLGSAIEEVSRGQLGRWECYKQRLFFLVLALLVATVLWALILSTLLSSASSKLRVLLSHQDLLRTNASEQKMTLSSLKDDIGACRNCCSVTKAQLQTTLAEFKDIQAKLMEQESILKELQERVTQDLAKASRDRENIRSELFQALEAVKRQNSSCEQCPPSWLPFQGSCYYFSETQATWDTAQSYCGGQGAHLVIVRGLNEQGFLSQHTRGRGYWLGLRAVRHLNKIQGYRWVDGASLNFSHWNSGEPNDSRGHEDCIMMLHSGLWNDAPCTNERDGWICEKRSSCY
2. MXA PilAct-eGFP (Myxococcus xanthus), Q59589 (protein) MRVSRFNPRNRGFTLIELMIVVAIIGILAAIAIPNFIKFQARSKQSEAKTNLKALYTAQKSFFSEKDRYSDFANEIGFAPERGNRYGYRVSAAAGDCEVRNAADLPVPAAGVPCISNDSFRFGANSAIDDPTPVVARFVPQGAAGWNTTLGVQPTIADCPNCNFFAGARGNADNEATFDDWVIAGFEGSGQVGPCSEAGNVASGTPYNTRNDVACDGAAQ

[6.38, 0.002]

// data source = the supplement of paper PMC8728848
